Molecular target: T1, human ALK epitope peptide (amino acids 391-406 of the ALK protein) (human)
T1 construct: In the yeast two-hybrid screen it was a C-terminal fusion to LexA; also called Alk LBD peptide; Alk LBD
T1 peptide: GRIGRPDNPFRVALEY
Assay: ELISA; the coated antigen is not named on the sheet or in the legend, taken as the ALK epitope peptide

>  <Binder>
100.2 (scFv, One of the seven improved scFvs (group m4); The full chain is assembled from ESBA521 with its VH CDR2 exchanged) scFv (VL-linker-VH): QSVLTQPPSVSAAPGQKVTISCSGSTSNIGDNYVSWYQQLPGTAPQLLIYDNTKRPSGIPDRFSGSKSGTSATLGITGLQTGDEADYYCATWDNDKWGVVFGGGTKLEVLGGGGGSGGGGSGGGGSSGGGSEVQLVESGGGLVQPGGSLRLSCAASGFTFSSYAMSWVRQAPGKGLEWVSAIKTDGNHKYYADSVKGRFTISRDNSKNTLYLQMNSLRAEDTAVYYCARDAWLDVLSDGFDYWGQGTLVTVSS

>  <binding result>
binds

$$$$
>  <Binder>
33.11 (scFv, One of the seven improved scFvs (group m4); The full chain is assembled from ESBA521 with its VH CDR2 exchanged; also called scFv 33.11) scFv (VL-linker-VH): QSVLTQPPSVSAAPGQKVTISCSGSTSNIGDNYVSWYQQLPGTAPQLLIYDNTKRPSGIPDRFSGSKSGTSATLGITGLQTGDEADYYCATWDNDKWGVVFGGGTKLEVLGGGGGSGGGGSGGGGSSGGGSEVQLVESGGGLVQPGGSLRLSCAASGFTFSSYAMSWVRQAPGKGLEWVSAINTGGGSTYYADSVKGRFTISRDNSKNTLYLQMNSLRAEDTAVYYCARDAWLDVLSDGFDYWGQGTLVTVSS

>  <binding result>
binds

$$$$
>  <Binder>
43.2 (scFv, One of the seven improved scFvs (group m4); The full chain is assembled from ESBA521 with its VH CDR2 exchanged) scFv (VL-linker-VH): QSVLTQPPSVSAAPGQKVTISCSGSTSNIGDNYVSWYQQLPGTAPQLLIYDNTKRPSGIPDRFSGSKSGTSATLGITGLQTGDEADYYCATWDNDKWGVVFGGGTKLEVLGGGGGSGGGGSGGGGSSGGGSEVQLVESGGGLVQPGGSLRLSCAASGFTFSSYAMSWVRQAPGKGLEWVSAIRTNSKEYYADSVKGRFTISRDNSKNTLYLQMNSLRAEDTAVYYCARDAWLDVLSDGFDYWGQGTLVTVSS

>  <binding result>
binds

$$$$
